# Assay System: HLA-DR (DRA1*01:01 / DRB1*01:02), soluble knob-into-hole Fc heterodimer (human)
# Protocol: ELISA
Parameter Measured: pKi
Remember the convention: pKi equals -log10 of concentration in molar.

Consider the binder shown here: KPVSKMRMATPLLMQALPM [human CLIP peptide, unlabelled competitor] What is its recorded pKi? 8.26
